B1: VDR (parent)
chain: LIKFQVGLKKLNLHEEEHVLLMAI

Variants of: B1
Assay: protein stability index of a GFP-peptide fusion (GPS, HEK-293T) (PSI 1-6); higher = more stable;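 note: lentivirally expressed fusions sorted by FACS into six bins by GFP to DsRed ratio, PSI derived from sequencing read proportions per bin multiplied by bin number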
Details: c terminus: a fixed tail appended
Give protein stability index for every item shown.
No unit in the answer, please; the number alone is enough.

Requested field: protein stability index. Item: "G7Y"
2.11

Requested field: protein stability index. Item: "L21G"
2.76

Requested field: protein stability index. Item: "M22H"
2.06

Requested field: protein stability index. Item: "L20P"
2.31

Requested field: protein stability index. Item: "L21Y"
2.92

Requested field: protein stability index. Item: "E15K"
2.5

Requested field: protein stability index. Item: "I24F"
3.74

Requested field: protein stability index. Item: "A23V"
1.85

Requested field: protein stability index. Item: "F4A"
2.1

Requested field: protein stability index. Item: "E17R"
3.74

Requested field: protein stability index. Item: "I2V"
3

Requested field: protein stability index. Item: "E17Q"
2.7

Requested field: protein stability index. Item: "M22T"
1.84

Requested field: protein stability index. Item: "Q5H"
2.65

Requested field: protein stability index. Item: "N12G"
2.62

Requested field: protein stability index. Item: "L13I"
2.39

Requested field: protein stability index. Item: "K9G"
3.2

Requested field: protein stability index. Item: "I2Y"
2.93

Requested field: protein stability index. Item: "E17F"
1.95

Requested field: protein stability index. Item: "V19R"
2.89

Requested field: protein stability index. Item: "I24E"
2.55

Requested field: protein stability index. Item: "V6N"
2.61

Requested field: protein stability index. Item: "A23D"
3.29

Requested field: protein stability index. Item: "E15G"
2.92

Requested field: protein stability index. Item: "L20C"
3.71

Requested field: protein stability index. Item: "E15C"
1.99

Requested field: protein stability index. Item: "I24R"
2.35

Requested field: protein stability index. Item: "E16R"
2.24

Requested field: protein stability index. Item: "N12T"
2.92

Requested field: protein stability index. Item: "H14N"
3.26

Requested field: protein stability index. Item: "L13K"
3.2

Requested field: protein stability index. Item: "E15S"
2.96

Requested field: protein stability index. Item: "K9L"
2.97

Requested field: protein stability index. Item: "K3P"
1.89

Requested field: protein stability index. Item: "H14G"
4.41

Requested field: protein stability index. Item: "L20V"
1.01

Requested field: protein stability index. Item: "L11W"
2.1

Requested field: protein stability index. Item: "L8W"
1.89

Requested field: protein stability index. Item: "L20K"
1.91

Requested field: protein stability index. Item: "L20H"
1.86
